B1: library; numbered along this chain (parent)
chain: MAAAGGARLLRAASAVLGGPAGRWLHHAGSRAGSSGLLRNRGPGGSAEASRSLSVSARARSSSEDKITVHFINRDGETLTTKGKVGDSLLDVVVENNLDIDGFGACEGTLACSTCHLIFEDHIYEKLDAITDEENDMLDLAYGLTDRSRLGCQICLTKSMDNMTVRVPETVADARQSIDVGKTS

- Variants of: B1
- Test description: scaled log2 fold change in cell abundance, elesclomol vs control (0 = silent mean, 1 = nonsense mean) (scaled log2 ratio); higher = higher viability under elesclomol (loss of FDX1 cuproptosis function);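 note: variant abundance is its share of total variant reads in each endpoint sample, from next-generation sequencing of the integrated ORF PCR-amplified out of genomic DNA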
- Assay setup: with ABC1 FDX1 KO; elesclomol 5 nM; glucose 10 mM; 14 days
So I've got a bunch of variants here, and I need their scaled log2 fold change values.
Give bare numbers.

Illustrative cases are given below, each with its answer.
>  <Variant key>
R51W

>  <scaled log2 fold change>
0.239

$$$$
>  <Variant key>
H27R

>  <scaled log2 fold change>
0.168

$$$$
>  <Variant key>
D132T

>  <scaled log2 fold change>
-0.0728

$$$$
>  <Variant key>
T114G

>  <scaled log2 fold change>
-1.41

$$$$
>  <Variant key>
H27V

>  <scaled log2 fold change>
0.305

$$$$
>  <Variant key>
A47H

>  <scaled log2 fold change>
0.813

$$$$
>  <Variant key>
L156A

>  <scaled log2 fold change>
0.194

$$$$
>  <Variant key>
I154S

>  <scaled log2 fold change>
0.481

$$$$
>  <Variant key>
G86A

>  <scaled log2 fold change>
0.349

$$$$
>  <Variant key>
N40I

>  <scaled log2 fold change>
0.554

$$$$

Turning now to a further record.
Input: # return recorded scaled log2 fold change for input V55F
Output: 0.0901
